Biological target: recombinant human GST-Syk (Homo sapiens (Human))
Experiment: Homogeneous Time-Resolved Fluorescence (HTRF) assay for the recombinant human Syk enzyme
Details: recombinant human GST-Syk 5 pM, ATP 25 μM, read-out: rhSyk IC50
VALUE_TYPE: IC50 (nM)
Give a bare numeral; the unit nM is implied.

*Q* Supply IC50 value. Item: CC(C)(O)c1cc(Nc2cc(C(F)F)ccn2)nc(-c2ccc(C(C)(O)C3CCC(C(=O)O)CC3)nc2)c1 (centres unmarked)
*A* 1

*Q* Supply IC50 value. Item: `Cc1cc(Nc2cc(C(F)(F)F)ccn2)nc(-c2ccc(NC3CCN(C(=O)c4cnn5cccnc45)CC3)nc2)c1`
*A* 1

*Q* Supply IC50 value. Item: `COc1c(C(=O)N2CCC(Nc3ccc(-c4cc(C)cc(Nc5cc(C(F)(F)F)ccn5)n4)cn3)CC2)ccc2ccccc12`
*A* 83

*Q* Supply IC50 value. Item: `Cc1cc(Nc2cc(C(F)(F)F)ccn2)nc(-c2ccc(NC3CCNCC3)nc2)c1`
*A* 6

*Q* Supply IC50 value. Item: `Cc1cc(Nc2cc(C(F)(F)F)ccn2)nc(-c2ccc(NC3CCN(C(=O)c4ccc(F)c(O)c4)CC3)nc2)c1`
*A* 4

*Q* Supply IC50 value. Item: `Cc1cc(Nc2cc(C(F)(F)F)ccn2)nc(-c2ccc(NC3CCN(C(=O)c4ccccc4N(C)C)CC3)nc2)c1`
*A* 40

*Q* Supply IC50 value. Item: `Cc1cc(Nc2cc(C(F)(F)F)ccn2)nc(-c2ccc(NC3CCN(C(=O)Cc4ccc5cn[nH]c5c4)CC3)nc2)c1`
*A* 8

*Q* Supply IC50 value. Item: `Cc1cc(Nc2cc(C(F)(F)F)ccn2)nc(-c2ccc(NC3CCN(C(=O)c4nccc5ccccc45)CC3)nc2)c1`
*A* 20

*Q* Supply IC50 value. Item: Cc1cc(Nc2cc(C(F)(F)F)ccn2)nc(-c2ccc(NC3CCC(C(=O)O)C(C)(C)C3)nc2)c1 (single isomer, unassigned) [Example 3-5]
*A* 2

*Q* Supply IC50 value. Item: Cc1cc(Nc2cc(C(F)(F)F)ccn2)nc(-c2ccc(N3CCCC(NC(N)=O)C3)nc2)c1 (centres unmarked)
*A* 5

*Q* Supply IC50 value. Item: `Cc1cc(Nc2cc(C(F)(F)F)ccn2)nc(-c2ccc(NC3CCN(C(=O)Cc4ccc(C#N)cc4)CC3)nc2)c1`
*A* 4

*Q* Supply IC50 value. Item: `CC(=O)N[C@H]1CCN(c2ccc(-c3cc(C)cc(Nc4cc(C(F)(F)F)ccn4)n3)cn2)C1`
*A* 17

*Q* Supply IC50 value. Item: Cc1cc(Nc2cc(C(F)(F)F)ccn2)nc(-c2ccc(C3(O)CCC(C(=O)O)C(C)(C)C3)nc2)c1 (centres unmarked) [Example 1-26]
*A* 1

*Q* Supply IC50 value. Item: `Cc1cc(Nc2cc(C(F)(F)F)ccn2)nc(-c2ccc(NC3CCN(C(=O)COc4ccccc4)CC3)nc2)c1`
*A* 28
